# measurementProtocol: In vivo biodistribution in mice
# Parameters: species or system normal CD-1 male mice
# particulars: iv, 30 min (0.5 hr) post injection
Cut-off 0.5 % dose/g on Biodistribution: Blood: below means 1, at or above means -1.

Field: below-cutoff. Rule: recorded Biodistribution: Blood strictly less than 0.5 % dose/g. Subject: O=C([O-])CN(CCN(CC(=O)[O-])Cc1cc(CCC(=O)NC(P(=O)(O)O)P(=O)(O)O)ccc1[O-])Cc1cc(CCC(=O)NC(P(=O)(O)O)P(=O)(O)O)ccc1[O-].[68Ga+3] [[^68Ga]2]
-1

Regarding O=C([O-])CN(CCN(CC(=O)[O-])Cc1cc(CCC(=O)NC(P(=O)(O)O)P(=O)(O)O)ccc1[O-])Cc1cc(CCC(=O)NC2C(O)OC(CO)C(O)C2O)ccc1[O-].[68Ga+3] (stereo not shown) [[^68Ga]1b] , kindly confirm whether its Biodistribution: Blood is beneath 0.5 % dose/g.
-1

Bench note: check whether C[C@H](NC(=O)CCc1ccc([O-])c(CN(CCN(CC(=O)[O-])Cc2cc(CCC(=O)NC(P(=O)(O)O)P(=O)(O)O)ccc2[O-])CC(=O)[O-])c1)C(=O)O.[68Ga+3] [[^68Ga]1d] shows Biodistribution: Blood below 0.5 % dose/g
-1

Regarding O=C([O-])CN(CCN(CC(=O)[O-])Cc1cc(CCC(=O)N[C@@H](CCC(=O)O)C(=O)O)ccc1[O-])Cc1cc(CCC(=O)NC(P(=O)(O)O)P(=O)(O)O)ccc1[O-].[68Ga+3] [[^68Ga]1f] , kindly confirm whether its Biodistribution: Blood is beneath 0.5 % dose/g.
-1

Determine if O=C([O-])CN(CCN(CC(=O)[O-])Cc1cc(CCC(=O)NC(P(=O)(O)O)P(=O)(O)O)ccc1[O-])Cc1cc(CCC(=O)NCC(=O)O)ccc1[O-].[68Ga+3] [[^68Ga]1c] shows Biodistribution: Blood strictly lower than 0.5 % dose/g.
-1

Strictly below 0.5 % dose/g in Biodistribution: Blood? O=C([O-])CN1CCN(CC(=O)[O-])CCN(CC(=O)NCCNC(=O)CCc2ccc(O)c(CN(CCN(CC(=O)O)Cc3cc(CCC(=O)NC(P(=O)(O)O)P(=O)(O)O)ccc3O)CC(=O)O)c2)CCN(CC(=O)[O-])CC1.[177Lu+3] [[^177Lu]1h]
-1

Answer whether the compound O=C([O-])CN(CCN(CC(=O)[O-])Cc1cc(CCC(=O)NC(P(=O)(O)O)P(=O)(O)O)ccc1[O-])Cc1cc(CCC(=O)O)ccc1[O-].[68Ga+3] [[^68Ga]1a] has Biodistribution: Blood strictly less than 0.5 % dose/g
1

Please check: Biodistribution: Blood for [18F-].[Na+] [[^18F]NaF, reference compound] , strictly under 0.5 % dose/g or not?
-1

Does the reported Biodistribution: Blood of the following compound sit strictly below 0.5 % dose/g? O=C([O-])CN(CCN(CC(=O)[O-])Cc1cc(CCC(=O)NC(P(=O)(O)O)P(=O)(O)O)ccc1[O-])Cc1cc(CCC(=O)NCCNC(=O)CN2CCN(CC(=O)O)CCN(CC(=O)O)CCN(CC(=O)O)CC2)ccc1[O-].[68Ga+3] [[^68Ga]1h]
1

Quick check: does O=C([O-])CN(CCN(CC(=O)[O-])Cc1cc(CCC(=O)NC(P(=O)(O)O)P(=O)(O)O)ccc1[O-])Cc1cc(CCC(=O)NCCCNC(=O)CCc2ccc(O)c(CN(CCN(CC(=O)O)Cc3cc(CCC(=O)NC(P(=O)(O)O)P(=O)(O)O)ccc3O)CC(=O)O)c2)ccc1[O-].[68Ga+3] [[^68Ga]3] have Biodistribution: Blood under 0.5 % dose/g?
-1
